# pIC50 per entry
target: cPLA2 (Homo sapiens, UniProt P47712); test: Soluble substrate assay (LysoPC); format: biochemical
Sequence (P47712 whole entry): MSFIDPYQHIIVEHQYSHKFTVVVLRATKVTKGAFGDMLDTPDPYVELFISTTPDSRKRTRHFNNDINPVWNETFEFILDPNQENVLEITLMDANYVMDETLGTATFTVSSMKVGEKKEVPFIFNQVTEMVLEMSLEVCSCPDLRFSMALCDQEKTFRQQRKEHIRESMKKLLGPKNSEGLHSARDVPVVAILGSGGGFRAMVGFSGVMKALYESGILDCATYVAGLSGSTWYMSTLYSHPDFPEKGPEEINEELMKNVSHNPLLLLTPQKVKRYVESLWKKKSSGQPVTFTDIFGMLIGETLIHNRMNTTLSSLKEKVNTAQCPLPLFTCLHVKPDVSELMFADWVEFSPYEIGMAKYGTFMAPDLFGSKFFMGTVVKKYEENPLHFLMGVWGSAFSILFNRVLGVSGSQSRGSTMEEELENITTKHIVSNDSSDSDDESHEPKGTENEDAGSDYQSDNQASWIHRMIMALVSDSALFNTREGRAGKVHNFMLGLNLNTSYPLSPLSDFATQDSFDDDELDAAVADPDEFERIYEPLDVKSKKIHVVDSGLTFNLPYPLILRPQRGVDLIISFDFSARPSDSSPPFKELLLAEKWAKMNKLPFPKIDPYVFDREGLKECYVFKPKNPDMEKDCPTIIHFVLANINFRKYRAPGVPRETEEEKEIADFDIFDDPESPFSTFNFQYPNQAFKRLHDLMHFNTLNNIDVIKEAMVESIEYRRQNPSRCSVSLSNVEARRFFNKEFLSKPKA
pIC50: −log10 of the molar value.

- structure-string: "O=C(O)c1ccc(OCc2cc3cc(OCc4ccccc4)ccc3n2C(=O)OCc2ccccc2)cc1"
  pIC50: 5.22
- structure-string: "CCn1c(CSCC(=O)Nc2cc(C(=O)O)ccc2OC)c(C(=O)COc2ccc(C(C)(C)CC)cc2C(C)(C)CC)c2cc(OCc3ccccc3)ccc21"
  pIC50: 6.30
- structure-string: "O=C(O)c1cc(NC(=O)c2cc3cc(OCc4ccccc4)ccc3n2Cc2ccc3ccccc3c2)cc(C(=O)O)c1"
  pIC50: 5.68
- structure-string: "CCC(C)(C)c1ccc(CCCCn2c(C(=O)Nc3cc(C(=O)O)ccc3OC)cc3cc(OCc4ccccc4)ccc32)c(C(C)(C)CC)c1"
  pIC50: 5.70
- structure-string: "O=C(O)c1cccc(NC(=O)c2cc3cc(OCc4ccccc4)ccc3n2Cc2ccccc2)c1"
  pIC50: 5.37
- structure-string: "O=C(O)c1ccccc1OCc1cc2cc(OCc3ccccc3)ccc2n1C(=O)OCc1ccccc1"
  pIC50: 4.33
- structure-string: "O=C(O)c1cc(NC(=O)c2cc3cc(OCc4ccccc4)ccc3n2Cc2ccc(C(F)(F)F)cc2C(F)(F)F)ccc1Oc1ccc(Cl)nc1"
  pIC50: 6.48
- structure-string: "O=C(O)c1cccc(NC(=O)c2cc3cc(OCc4ccccc4)ccc3n2Cc2ccc(COc3cc(C(F)(F)F)cc(C(F)(F)F)c3)cc2)c1"
  pIC50: 6.96
- structure-string: "CCC(C)(C)c1ccc(OCC(=O)c2c(CSCC(=O)Nc3cc(C(=O)O)ccc3OC)n(C)c3ccc(OC)cc23)c(C(C)(C)CC)c1"
  pIC50: 5.40
- structure-string: "O=C(O)c1cccc(OCc2cc3cc(OCc4ccccc4)ccc3n2C(=O)OCc2ccccc2)c1"
  pIC50: 5.19

====

biological target: cPLA2 (Homo sapiens); test: Coumarine assay (7-hydroxycoumarinyl 6-heptenoate hydrolysis); format: biochemical; details: 60 μM 7-hydroxycoumarinyl 6-heptenoate; read-out: IC50 (μM) Coumarine
Binary label based on IC50 with cut-off 10 µM: below gives yes, not below gives no.

- molecule: "CC(C)(c1ccccc1)c1ccc(OCC(=O)N2c3ccc(OCc4ccccc4)cc3CC2CSCC(=O)Nc2cccc(C(=O)O)c2)c(C(C)(C)c2ccccc2)c1 (centres unmarked)"
  label: "yes"
- molecule: "CCC(C)(C)c1ccc(OCC(=O)N2c3ccc(OCc4ccccc4)cc3CC2CSCC(=O)O)c(C(C)(C)CC)c1 (centres unmarked)"
  label: "yes"
- molecule: "CS(=O)(=O)NC(=O)C1Cc2ccccc2N1Cc1ccc(C(F)(F)F)cc1C(F)(F)F (centres unmarked)"
  label: "no"
- molecule: "CCC(C)(C)c1ccc(OCC(=O)N2c3ccc(OCc4ccccc4)cc3CC2CSc2ccccc2C(=O)NC)c(C(C)(C)CC)c1 (centres unmarked)"
  label: "no"
- molecule: "O=C(CSCC1Cc2cc(OCc3ccccc3)ccc2N1CCc1ccncc1)Nc1cccc(C(=O)O)c1 (centres unmarked)"
  label: "no"
- molecule: "C=CCN(C(=O)CSCC1Cc2cc(OCc3ccccc3)ccc2N1C(=O)COc1ccc(C(C)(C)CC)cc1C(C)(C)CC)c1cc(C(=O)O)ccc1OC (centres unmarked)"
  label: "no"
- molecule: "O=C(O)CSCC1Cc2cc(OCc3ccccc3)ccc2N1C(=O)COc1cc(C(F)(F)F)cc(C(F)(F)F)c1 (centres unmarked)"
  label: "no"
- molecule: "CN(C)C(=O)c1cc(NC(=O)CSCC2Cc3cc(OCc4ccccc4)ccc3N2C(=O)COc2cc(C(F)(F)F)cc(C(F)(F)F)c2)cc(C(=O)O)c1 (centres unmarked)"
  label: "no"
- molecule: "O=C(CSCC1Cc2cc(OCc3ccc4ccccc4n3)ccc2N1C(=O)COc1cc(C(F)(F)F)cc(C(F)(F)F)c1)Nc1cc(C(F)(F)F)cc(C(F)(F)F)c1 (centres unmarked)"
  label: "no"
- molecule: "O=C(CSCC1Cc2cc(OCc3ccccc3)ccc2N1Cc1ccc2ccccc2c1)Nc1cccc(C(=O)O)c1 (centres unmarked)"
  label: "yes"
- molecule: "O=C(CSCC1Cc2cc(OCc3ccccc3)ccc2N1C(=O)COc1ccc(C2C=CCC2)cc1C1C=CCC1)Nc1cccc(C(=O)O)c1 (centres unmarked)"
  label: "yes"
- molecule: "CNC(=O)c1cc(NC(=O)CSCC2Cc3cc(OCc4ccccc4)ccc3N2C(=O)COc2cc(C(F)(F)F)cc(C(F)(F)F)c2)cc(C(=O)O)c1 (centres unmarked)"
  label: "no"
- molecule: "CC(=O)c1cc(NC(=O)CSCC2Cc3cc(OCc4ccccc4)ccc3N2C(=O)COc2cc(C(F)(F)F)cc(C(F)(F)F)c2)cc(C(=O)O)c1 (centres unmarked)"
  label: "no"
- molecule: "O=C(O)c1ccccc1SCC1Cc2cc(OCc3ccccc3)ccc2N1Cc1ccc(COc2cc(C(F)(F)F)cc(C(F)(F)F)c2)cc1 (centres unmarked)"
  label: "yes"
- molecule: "COc1ccc(C(=O)O)cc1NC(=O)CSCC1Cc2cc(OCc3ccccc3)ccc2N1C(=O)COc1ccc2ccccc2c1 (centres unmarked)"
  label: "no"
- molecule: "O=C(O)c1ccc(CN2c3ccc(OCc4ccccc4)cc3CC2COCc2ccc3ccccc3c2)cc1 (centres unmarked)"
  label: "no"
- molecule: "O=C(O)c1cc(NC(=O)C2Cc3ccccc3N2Cc2ccc(C(F)(F)F)cc2C(F)(F)F)cc(C(=O)O)c1 (centres unmarked)"
  label: "no"
- molecule: "COc1ccc(C(=O)O)cc1NC(=O)CSCC1Cc2cc(OCc3ccccc3)ccc2N1Cc1ccc(C(F)(F)F)cc1C(F)(F)F (centres unmarked)"
  label: "yes"
- molecule: "CC(O)c1cc(NC(=O)CSCC2Cc3cc(OCc4ccccc4)ccc3N2C(=O)COc2cc(C(F)(F)F)cc(C(F)(F)F)c2)cc(C(=O)O)c1 (centres unmarked)"
  label: "no"
- molecule: "O=C(O)c1ccccc1SCC1Cc2cc(OCc3ccccc3)ccc2N1Cc1ccc(Cc2ccccc2)cc1 (centres unmarked)"
  label: "yes"
- molecule: "CCC(C)(C)c1ccc(OCC(=O)N2c3ccc(OCc4ccccc4)cc3CC2CSCC(=O)N(C)c2cc(C(=O)O)ccc2OC)c(C(C)(C)CC)c1 (centres unmarked)"
  label: "no"
- molecule: "O=C(O)c1ccc(CN2c3ccc(OCc4ccccc4)cc3CC2COCc2ccc(C(F)(F)F)cc2C(F)(F)F)cc1 (centres unmarked)"
  label: "no"
- molecule: "O=C(NS(=O)(=O)c1ccccc1)C1Cc2ccccc2N1Cc1ccc(C(F)(F)F)cc1C(F)(F)F (centres unmarked)"
  label: "no"
- molecule: "CCC(C)(C)c1ccc(OCC(=O)N2c3ccc(OCc4ccccc4)cc3CC2CSCC(=O)Nc2cccc(C(=O)O)c2)c(C(C)(C)CC)c1 (centres unmarked)"
  label: "yes"
- molecule: "O=C(CSCC1Cc2cc(OCc3ccccc3)ccc2N1Cc1ccc(C(F)(F)F)cc1C(F)(F)F)Nc1cccc(C(=O)O)c1 (centres unmarked)"
  label: "yes"

====

Measured IC50 accompanies every entry in the list below.
target: cPLA2 (Homo sapiens, UniProt P47712); experiment: Soluble substrate assay (LysoPC); type: biochemical; settings: NA = inhibitory activity not detected; read-out: IC50 (μM) Lyso PC

- compound: "O=C(O)c1ccc(CN2c3ccc(OCc4ccccc4)cc3CC2COCc2ccc3ccccc3c2)cc1 (stereo not shown)"
  unit-text: "µM"
  IC50: 3.2
- compound: "CS(=O)(=O)NC(=O)C1Cc2ccccc2N1Cc1ccc(C(F)(F)F)cc1C(F)(F)F (stereo not shown)"
  unit-text: "µM"
  IC50: 23
- compound: "O=C(NS(=O)(=O)c1ccccc1)C1Cc2ccccc2N1Cc1ccc(C(F)(F)F)cc1C(F)(F)F (stereo not shown)"
  unit-text: "µM"
  IC50: 21
- compound: "CNC(=O)c1cc(NC(=O)CSCC2Cc3cc(OCc4ccccc4)ccc3N2C(=O)COc2cc(C(F)(F)F)cc(C(F)(F)F)c2)cc(C(=O)O)c1 (stereo not shown)"
  unit-text: "µM"
  IC50: 7.1
